Cited source: PubChem BioAssay (NCI)

# Tested on: MOLT-4 leukemia
# assay text: NCI tumour cell line growth inhibition, 48 h; in the data active means GI50 below about 0.43 µM; inactive means the rest
Possible outcomes: true (active), false (inactive)

>  <molecule>
COc1cc(/C=C/C(=O)C(C(=O)/C=C/c2ccc(OC(=O)CCNc3nnc(C)s3)c(OC)c2)C(=O)CCNc2nnc(C)s2)ccc1OC(=O)CCNc1nnc(C)s1

>  <cat>
false

$$$$
>  <molecule>
CCCCCCCCCCCCCCCCOC(=O)c1c(C)[nH]c(/C=C2\N=C(c3ccc[nH]3)C=C2OC)c1C

>  <cat>
false

$$$$
>  <molecule>
N#Cc1c(NC(=O)c2cccc3ccccc23)sc2c1CCCC2

>  <cat>
true

$$$$
>  <molecule>
O=c1[nH]ccc2nc(-c3ccc(CN4CCC(c5nc(-c6ccccn6)n[nH]5)CC4)cc3)c(-c3ccccc3)cc12

>  <cat>
true

$$$$
>  <molecule>
CS(=O)(=O)Nc1cccc(-c2ccc3c(NC(=O)C4CC4)n[nH]c3c2)c1

>  <cat>
false

$$$$
>  <molecule>
COc1cc2c(cc1OCCCCCn1c(-c3ccco3)nc3ccccc31)N=C[C@@H]1CCCN1C2=O

>  <cat>
true

$$$$
>  <molecule>
COc1cc(Nc2ncc3c(C)nc(-c4cccc(Oc5ccccc5)c4)n3n2)cc(OC)c1OC

>  <cat>
false

$$$$
>  <molecule>
O=C(Nc1cccnc1)c1cccc([N+](=O)[O-])c1

>  <cat>
false

$$$$
>  <molecule>
COc1cc(C2CC(c3ccc(Nc4ccnc5cc(Cl)ccc45)cc3)=NN2C=O)cc(OC)c1OC (centres undefined)

>  <cat>
false

$$$$

---

# Tested on: EKVX NSCLC
# assay text: NCI tumour cell line growth inhibition, 48 h

>  <compound>
COc1cc(/C=C/C(=O)C(C(=O)/C=C/c2ccc(OC(=O)CCNc3nnc(C)s3)c(OC)c2)C(=O)CCNc2nnc(C)s2)ccc1OC(=O)CCNc1nnc(C)s1

>  <TGI>
14.8 µM

$$$$
>  <compound>
COc1cc(C(=O)/C=C/c2c(-c3ccc(F)cc3)nc3ncccn23)cc(OC)c1OC

>  <TGI>
> 100 µM

$$$$
>  <compound>
N#Cc1c(-c2ccc(Cl)cc2)c(-c2ccc(Cl)cc2)nn(CCOC(=O)CCC(=O)O)c1=O

>  <TGI>
> 100 µM

$$$$
>  <compound>
O=C1N(CN2CCOCC2)CN(CN2CCOCC2)C(=O)N1Cc1ccccc1

>  <TGI>
> 100 µM

$$$$
>  <compound>
N#CCCN(CCC#N)c1ccc(/C=N\c2nc(-c3ccccc3)cs2)cc1

>  <TGI>
> 100 µM

$$$$
>  <compound>
O=C1OC2c3ccccc3C(=O)C2(c2ccccc2)N1c1ccccc1 (stereo not given)

>  <TGI>
> 200 µM

$$$$
>  <compound>
NC(N)=NS(=O)(=O)c1ccc(Nc2c3ccccc3nc3c(C(=O)NC(CO)(CO)CO)cccc23)cc1

>  <TGI>
> 100 µM

$$$$
>  <compound>
CN1C(=O)c2cc([N+](=O)[O-])ccc2[C@H]2C(=O)c3cc4c(cc3[C@H]21)OCO4

>  <TGI>
> 24.5 µM

$$$$
>  <compound>
COc1cc(-n2cc(-c3ccc(F)cc3)[nH]c2=S)cc(OC)c1OC

>  <TGI>
> 100 µM

$$$$
>  <compound>
COc1ccc(N(C)c2nc(Cl)nc3ccn(C)c23)cc1

>  <TGI>
> 100 µM

$$$$

---

Entries annotated with measured TGI
# System: MALME-3M melanoma
# assay text: NCI tumour cell line growth inhibition, 48 h

>  <compound>
COc1cc(S(=O)(=O)Nc2ccc(-c3csc(N4C(=O)C(C)SC4c4ccccc4O)n3)cc2)ccc1Cl (stereo not given)

>  <bound operator>
=

>  <TGI / µM>
35.5

$$$$
>  <compound>
CN(C)CC(C)(C)C(/C=C/c1ccccc1)=N\Nc1ccccc1

>  <bound operator>
=

>  <TGI / µM>
26.6

$$$$
>  <compound>
OCCCCn1cc(Cn2ncc3c(SCc4ccccc4)ncnc32)nn1

>  <bound operator>
>

>  <TGI / µM>
100

$$$$
>  <compound>
COc1ccc(Cn2cnc3cc(C(=O)Nc4cccc5ccccc45)ccc32)c(OC)c1

>  <bound operator>
>

>  <TGI / µM>
100

$$$$
>  <compound>
COc1ccc2c(c1)O[C@H]1c3ccc(O)cc3OC[C@@H]21

>  <bound operator>
>

>  <TGI / µM>
100

$$$$

---

Entries annotated with measured TGI
# Test system: SF-295 CNS
# assay text: NCI tumour cell line growth inhibition, 48 h

>  <molecule>
CCOC(=O)N[C@H]1CCc2cc(O)c(OC)c(OC)c2-c2ccc(SC)c(=O)cc21

>  <bound operator>
=

>  <TGI (µM)>
0.0995

$$$$
>  <molecule>
CNC(=O)c1n[nH]n(Cc2ccccc2)c1=S

>  <bound operator>
>

>  <TGI (µM)>
100

$$$$
>  <molecule>
COc1ccc(Cn2cnc3cc(C(=O)Nc4cccc5ccccc45)ccc32)c(OC)c1

>  <bound operator>
>

>  <TGI (µM)>
100

$$$$
>  <molecule>
CC(=O)[O-].[Ni].c1ccc(/C(=N\Nc2ccccn2)c2ccccn2)cc1

>  <bound operator>
=

>  <TGI (µM)>
26.8

$$$$
>  <molecule>
CC1CC(C)/C(=N/NC(N)=O)C(C(O)CC2CCC(=O)NC2=O)C1 (configuration not stated)

>  <bound operator>
=

>  <TGI (µM)>
13.5

$$$$
>  <molecule>
COP(=O)(OC)C(O)/C=C/c1ccco1 (configuration not stated)

>  <bound operator>
>

>  <TGI (µM)>
100

$$$$
>  <molecule>
O=C1Cc2ccccc2N1c1c(Cl)cccc1Cl

>  <bound operator>
>

>  <TGI (µM)>
100

$$$$
>  <molecule>
COc1ccc(C(=O)Cn2c(C(C)=O)nc3ccccc32)cc1

>  <bound operator>
=

>  <TGI (µM)>
80.6

$$$$
>  <molecule>
O=C(N/N=c1/ccoc2cccnc12)N1CCN(c2ncccn2)CC1

>  <bound operator>
=

>  <TGI (µM)>
6.03

$$$$
>  <molecule>
COc1ccc(CC2NCCc3cc(OC)c(OC)cc32)cc1 (configuration not stated)

>  <bound operator>
>

>  <TGI (µM)>
100

$$$$
>  <molecule>
O=c1[nH]ccc2nc(-c3ccc(CN4CCC(c5nc(-c6ccccn6)n[nH]5)CC4)cc3)c(-c3ccccc3)cc12

>  <bound operator>
=

>  <TGI (µM)>
19.9

$$$$
>  <molecule>
CCCC(=O)Nc1cc([N+](=O)[O-])c([N+](=O)[O-])cc1OC

>  <bound operator>
=

>  <TGI (µM)>
21.7

$$$$
>  <molecule>
CCSc1nc(N2CCCCC2)c2cn[nH]c2n1

>  <bound operator>
>

>  <TGI (µM)>
100

$$$$
>  <molecule>
O=C1C2C(C(=O)N1c1ccccc1)C1(c3ccccc3)OC2(c2ccccc2)c2ccccc21 (configuration not stated)

>  <bound operator>
>

>  <TGI (µM)>
100

$$$$
>  <molecule>
O=C(Nc1ccc([N+](=O)[O-])cc1C(=O)O)c1ccc([N+](=O)[O-])cc1

>  <bound operator>
>

>  <TGI (µM)>
100

$$$$
>  <molecule>
Cc1ccc(S(=O)C[C@@]2(C(F)F)NC(=O)NC2=O)cc1 (some centres not stated)

>  <bound operator>
>

>  <TGI (µM)>
100

$$$$
>  <molecule>
CCCN1CN(c2ccccc2)C2(CCN(CCCC(=O)c3ccc(F)cc3)CC2)C1=O

>  <bound operator>
=

>  <TGI (µM)>
24.8

$$$$
>  <molecule>
CC(=O)Nc1ccc2c(c1)C(=O)c1cccc(F)c1-2

>  <bound operator>
>

>  <TGI (µM)>
100

$$$$
>  <molecule>
BrCCC[P+](c1ccccc1)(c1ccccc1)c1ccccc1

>  <bound operator>
>

>  <TGI (µM)>
100

$$$$
>  <molecule>
COc1ccccc1-c1nc2ccccc2c(=O)[nH]1

>  <bound operator>
>

>  <TGI (µM)>
100

$$$$
>  <molecule>
COc1ccc2c(c1)C(=O)/C(=C/c1ccc([N+](=O)[O-])s1)O2

>  <bound operator>
=

>  <TGI (µM)>
9.61

$$$$
>  <molecule>
CC(=O)NC(CCCCNC(=O)OC(C)(C)C)C(=O)O (configuration not stated)

>  <bound operator>
>

>  <TGI (µM)>
100

$$$$

---

# System: HOP-62 NSCLC
# assay text: NCI tumour cell line growth inhibition, 48 h

>  <compound>
Cc1cc(NCCCCNc2ccnc3cc(Cl)ccc23)nc(Nc2ccc(C(=O)N3CCCC3)cc2)n1

>  <bound operator>
=

>  <TGI [µM]>
4.74

$$$$
>  <compound>
COCOCc1cc(OCc2ccccc2)c(OC)cc1Br

>  <bound operator>
>

>  <TGI [µM]>
100

$$$$
>  <compound>
COc1cc2c3c(n(CCCCNC(=O)OCC4c5ccccc5-c5ccccc54)c(=O)c2cc1OC)-c1cc2c(cc1C3=O)OCO2

>  <bound operator>
=

>  <TGI [µM]>
34

$$$$
>  <compound>
COc1cc(Nc2ncc3c(C)nc(-c4cccc(Oc5ccccc5)c4)n3n2)cc(OC)c1OC

>  <bound operator>
>

>  <TGI [µM]>
25

$$$$
>  <compound>
CCN(CC)CCC(=O)N1CCc2c([nH]c3ccccc23)C1c1cccnc1 (stereo not given)

>  <bound operator>
>

>  <TGI [µM]>
100

$$$$
>  <compound>
COC(=O)C1=COC2OC3/C(=C\c4ccc(O)c(OC)c4)C(=O)OC34C=CC1C24 (stereo not given)

>  <bound operator>
=

>  <TGI [µM]>
39.5

$$$$
>  <compound>
Cn1c(=O)c2c(ncn2CCSS(=O)(=O)O)n(C)c1=O

>  <bound operator>
>

>  <TGI [µM]>
100

$$$$
>  <compound>
CC(=O)O[C@H]1[C@@H](OC2CCCC2(c2ccccc2)c2ccccc2)O[N+]([O-])=C[C@@]12COCc1cc3c(cc12)OCO3 (stereo not given in full)

>  <bound operator>
=

>  <TGI [µM]>
7.67

$$$$
>  <compound>
C=C(C)[C@@H]1CC[C@]2(C(=O)O)CC[C@]3(C)[C@H](CC[C@@H]4[C@@]5(C)C[C@@H](CC#Cc6ccc(Br)cc6)C(=O)C(C)(C)[C@@H]5CC[C@]43C)[C@@H]12

>  <bound operator>
=

>  <TGI [µM]>
38.4

$$$$
>  <compound>
CC(C)/C(Cl)=N\OC(=O)Nc1ccc(F)c([N+](=O)[O-])c1

>  <bound operator>
=

>  <TGI [µM]>
32

$$$$
>  <compound>
CC(C)(C)c1cn2cccc(C(=O)N3CCN(CC(=O)Nc4ccc(Cl)cc4C(=O)c4ccccc4Cl)CC3)c2n1

>  <bound operator>
=

>  <TGI [µM]>
32.3

$$$$
>  <compound>
O=C1OC2c3ccccc3C(=O)C2(c2ccccc2)N1c1ccccc1 (stereo not given)

>  <bound operator>
>

>  <TGI [µM]>
200

$$$$
>  <compound>
COc1ccc2c[n+](C)c3c4cc(OC)c(OC)cc4ccc3c2c1

>  <bound operator>
=

>  <TGI [µM]>
27.7

$$$$
>  <compound>
COc1ccc(/C=C(\C(=O)OCC(C)C)c2ccc(OC)c(OC)c2)cc1OC

>  <bound operator>
>

>  <TGI [µM]>
100

$$$$
>  <compound>
O=C1c2cccc3cccc(c23)C(=O)N1CCCCN1CCN(CCCCOc2ccc(-c3nc4ccc(N5CCOCC5)cc4[nH]3)cc2)CC1

>  <bound operator>
>

>  <TGI [µM]>
100

$$$$
>  <compound>
O=C1CSC(=S)N1Cc1cccnc1

>  <bound operator>
>

>  <TGI [µM]>
100

$$$$
>  <compound>
COc1cc(C2c3[nH]c4ccc(F)cc4c3C[C@H]3COC(=O)N23)cc(OC)c1O (stereo not given in full)

>  <bound operator>
=

>  <TGI [µM]>
21.6

$$$$
>  <compound>
COc1cc(-c2c3c([nH]c(=O)c2C#N)-c2cc([N+](=O)[O-])ccc2CCC3)cc(OC)c1OC

>  <bound operator>
=

>  <TGI [µM]>
92.2

$$$$
>  <compound>
O=C(NCC(=O)N1CC[C@H](NC2CCC(O)(c3ccc(-c4ncccn4)cn3)CC2)C1)c1cccc(C(F)(F)F)c1 (stereo not given in full)

>  <bound operator>
>

>  <TGI [µM]>
100

$$$$
>  <compound>
N#Cc1c(NC(=O)c2cccc3ccccc23)sc2c1CCCC2

>  <bound operator>
>

>  <TGI [µM]>
25

$$$$
